- Test system: UO-31 renal
- assay-details: NCI-60 one-dose screen, 48 h
- conditions-used: 10 µM unless noted
About 83,000 compounds went through this panel and 20% of them were active in at least one assay; those are over-represented in the sample as a whole. Activity calls are given as the source filed them. How the source made its calls: active means growth percent below 10; inactive means the rest.
Just give me one of these, please: yes for active, no for inactive

Outcome? "COc1cnc2c(c1)C(=O)c1c-2n(CCCn2ccnc2)c(=O)c2cc(Cl)ccc12"
yes

Outcome? "Cc1cnc(NC(=O)Nc2cc(Br)c(C)cc2OC[C@@H]2CNCCO2)cn1"
yes

Outcome? "N#CCNC(=O)c1ccc(-c2ccnc(Nc3ccc(N4CCOCC4)cc3)n2)cc1"
yes

Outcome? "N#CC(C#N)=NO"
no

Outcome? "C=CCn1c(=O)c2cnc(Nc3ccc(N4CCN(C)CC4)cc3)nc2n1-c1cccc(C(C)(C)O)n1"
no

Outcome? "CC(C)c1cc(CNc2nc(Nc3cc(C4CC4)[nH]n3)cc(N3CCN(C)CC3)n2)on1"
yes

Outcome? "COC(=O)[C@]12CC[C@@H](C)[C@H](C)[C@@H]1C1=CC[C@@H]3[C@@]4(C)C(C=O)=C[C@@](C)(COS(C)(=O)=O)C4=CC[C@@]3(C)[C@]1(C)CC2"
yes

Outcome? "C=CCN1C(=O)c2cccc3c(-c4ccc5c(c4)ncn5C4CCCCC4)ccc(c23)C1=O"
no

Outcome? "O=C(Cn1ccc2ccccc21)Nc1ccc(-c2nc3ccccc3s2)cc1"
no

----------
For each entry below, report its growth value.
- Tested on: OVCAR-4 ovarian
- assay-details: NCI-60 one-dose screen, 48 h (100 = growth as untreated, 0 = no growth, -100 = all killed)
- conditions-used: 10 µM unless noted
- Description: Growth inhibition of the OVCAR-4 human tumor cell line is measured as a screen for anti-cancer activity. Cells are grown in 96 well plates and exposed to the test compound for 48 hours. Compounds are tested at a single concentration, which is 10^-5 M for most compounds. The reported endpoint is percent growth (GI% or GIPRCNT), where numbers from 0 - 100% represent growth inhibition, and numbers from -100% - 0 represent cell death. For example, a value of 40 represents 60% growth inhibition. […]
Compounds without any hit were thinned out: in the full panel of roughly 83,000, 20% have a hit.
Note: unit % is implicit; provide only the numeric part.

Tell me the measured growth of "Cn1c(Nc2ccc(C(F)(F)F)cc2)nc2cc(Oc3ccnc(-c4ncc(C(F)(F)F)[nH]4)c3)ccc21" , please.
64.7

Tell me the measured growth of "CN1CCN(c2ccc(OC(F)(F)F)c(Nc3ncc4c(n3)-c3c(c(C(N)=O)nn3CCO)CC4)c2)CC1" , please.
71.5

Tell me the measured growth of "Cc1cc([C@@H](C)Nc2ccccc2C(=O)O)c2nc(N3CCOCC3)cc(=O)n2c1" , please.
77.3

Tell me the measured growth of O=C1C=CC2(NN=C(c3ccccc3)N2c2ccc(Cl)cc2)c2cccc(O)c21 (configuration not stated) , please.
43.3

Tell me the measured growth of "CCc1nc2ccc(Cc3ccc(C(=O)NO)cc3)cc2c(=O)n1CCc1ccccc1" , please.
-7.64

Tell me the measured growth of "C#Cc1cccc(Nc2ncnc3cc(OCCOC)c(OCCOC)cc23)c1" , please.
54.3

Tell me the measured growth of CCCCCCCC12Cc3ccccc3C1=Nc1c(c3ccccc3n1C)C2=O (configuration not stated) , please.
97.4

Tell me the measured growth of "CCc1nc(C(N)=O)c(Nc2ccc(N3CCC(N4CCN(C)CC4)CC3)c(OC)c2)nc1NC1CCOCC1" , please.
81.2

Tell me the measured growth of "c1cc(OCCN2CCCCC2)cc(-c2n[nH]c3ccc(-c4ncn[nH]4)cc23)c1" , please.
62.7

Tell me the measured growth of "CCN(CC)c1cc2oc3cc(N)cc(=N)c-3nc2cc1C" , please.
-6.55

Tell me the measured growth of "O=C(NOCCO)c1cc(CN2OCCCC2=O)c(F)c(F)c1Nc1ccc(I)cc1F" , please.
64.5

Tell me the measured growth of Nc1ncnc2c1c(-c1cccc(OCc3ccccc3)c1)cn2C1CC(CN2CCC2)C1 (configuration not stated) , please.
57.4

Tell me the measured growth of "O=C(Nc1cccc([N+](=O)[O-])c1)c1ccc(Cl)c(Cl)c1" , please.
16.7

Tell me the measured growth of "Cc1cc(NCC(=O)Nc2ccc(-c3nc4ccccc4s3)cc2)no1" , please.
111

Tell me the measured growth of "Nc1nc(Nc2ccccc2)c(C=Nc2ccccc2)c(=O)[nH]1" , please.
94.8

Tell me the measured growth of "CC[C@H](CO)Nc1nc(NCc2ccccc2)c2ncn(C(C)C)c2n1" , please.
73.2

Tell me the measured growth of "O=C(CNc1nc2ccccc2s1)Nc1ccc(-c2nc3ccccc3s2)cc1" , please.
102

Tell me the measured growth of "Cc1cn(-c2cc(NC(=O)c3ccc(C)c(Nc4nccc(-c5cnccn5)n4)c3)cc(C(F)(F)F)c2)cn1" , please.
99.7

Tell me the measured growth of "COc1cc2nccc(Oc3ccc(NC(=O)C4(C(=O)Nc5ccc(F)cc5)CC4)cc3)c2cc1OC" , please.
26.3

Tell me the measured growth of "COC(=O)c1[nH]cnc1/N=N/N(C)CCO" , please.
105

Tell me the measured growth of "CCn1cc(-c2ccnc3[nH]c(-c4cccc(CN(C)C)c4)cc23)c(-c2ccc(NC(=O)N(C)C)cc2)n1" , please.
41.1

Tell me the measured growth of "COc1cc2ncnc(Nc3cccc(Cl)c3F)c2cc1OC(=O)N1CCN(C)C[C@H]1C" , please.
103

Tell me the measured growth of "Cc1cc(C(=O)NOCCO)c(Nc2ccc(I)cc2F)n(C)c1=O" , please.
71.3

Tell me the measured growth of "Cc1cc2c(-c3nc4ccccn4c3NC3CCCCC3)c(O)c(O)cc2c(O)c1-c1c(C)cc2c(-c3nc4ccccn4c3NC3CCCCC3)c(O)c(O)cc2c1O" , please.
27.4

Tell me the measured growth of "Cn1cnc2c(F)c(Nc3ccc(Br)cc3Cl)c(C(=O)NOCCO)cc21" , please.
65.5

Tell me the measured growth of CC(C)(C)OC(=O)N1CCC(O)[C@@H](O[Si](c2ccccc2)(c2ccccc2)C(C)(C)C)[C@H]1/C=C/c1ccccc1 (some centres not stated) , please.
21.3

Tell me the measured growth of "NC(=O)c1n[nH]n2c1nc(=O)c1c3c(sc12)CCCC3" , please.
118

Tell me the measured growth of "CNC(=O)c1ccccc1Nc1nc(Nc2ccc3c(c2OC)CCC[C@H](N2CCN(CCO)CC2)C3)ncc1Cl" , please.
4.95

Tell me the measured growth of "Brc1ccc([I+]c2ccc(Br)cc2)cc1" , please.
22.3

Tell me the measured growth of "Oc1ccc(/C=N/Nc2nnc(N/N=C/c3ccc(O)cc3O)c3ccccc23)c(O)c1" , please.
-9.22

Tell me the measured growth of "CNC(=O)c1ccc(Nc2ncc(C(F)(F)F)c(NCc3nccnc3N(C)S(C)(=O)=O)n2)cc1" , please.
1.68

Tell me the measured growth of O=C(c1ccccc1)C(c1ccccc1)N1CCOCC1 (configuration not stated) , please.
108

Tell me the measured growth of "COc1cnc2c(c1)C(=O)c1c-2n(CCCN2CCOCC2)c(=O)c2cc(Cl)ccc12" , please.
41.6

Tell me the measured growth of "Cc1cc(Nc2cc(N3CCN(C)CC3)nc(Sc3ccc(NC(=O)C4CC4)cc3)n2)n[nH]1" , please.
77

Tell me the measured growth of "CO[C@H]1C[C@@H]2CC[C@@H](C)[C@@](O)(O2)C(=O)C(=O)N2CCCC[C@H]2C(=O)O[C@H]([C@H](C)C[C@@H]2CC[C@@H](OP(C)(C)=O)[C@H](OC)C2)CC(=O)[C@H](C)/C=C(\C)[C@@H](O)[C@@H](OC)C(=O)[C@H](C)C[C@H](C)\C=C/C=C/C=C/1C" , please.
28.6

Tell me the measured growth of "COc1cc2c(Nc3ccc(Br)cc3F)ncnc2cc1OCC1CCN(C)CC1" , please.
36.4

Tell me the measured growth of "CNC(=O)c1cnc(C)nc1-c1cc(C(C)(C)C)c(O)c(C(C)(C)C)c1" , please.
89.7

----------
- Tested on: OVCAR-5 ovarian
- assay-details: NCI-60 one-dose screen, 48 h (100 = growth as untreated, 0 = no growth, -100 = all killed)
- conditions-used: 10 µM unless noted
Compounds without any hit were thinned out: in the full panel of roughly 83,000, 20% have a hit.
experimental-readout: growth (%)
Note: unit % is implicit; provide only the numeric part.

Tell me the measured growth of "CN(c1ncccc1CNc1nc(Nc2ccc3c(c2)CC(=O)N3)ncc1C(F)(F)F)S(C)(=O)=O" , please.
7.36

Tell me the measured growth of "CC(=O)Oc1ccccc1C(=O)N=C1[Se]CCN1C(=O)c1ccccc1OC(C)=O" , please.
-12.4

Tell me the measured growth of "CCCCn1c(C)nc2cc(Nc3nc(N4CCCCC4)nc4nc[nH]c34)ccc21" , please.
50.1

Tell me the measured growth of Clc1ccc(C(Cn2ccnc2)OCc2ccsc2Cl)c(Cl)c1 (centres undefined) , please.
68.9

Tell me the measured growth of CCCC(=O)OCC1OC(n2cnc3c(=S)nc[nH]c32)C(OC(=O)CCC)C1OC(=O)CCC (centres undefined) , please.
46.2

Tell me the measured growth of "NC1(c2ccc(-c3nc4ccn5c(=O)[nH]nc5c4cc3-c3ccccc3)cc2)CCC1" , please.
60.5

Tell me the measured growth of "ClCc1ccc(-c2ccc(Cn3cnc4c(Cl)nc(Cl)nc43)cc2)cc1" , please.
57.8

Tell me the measured growth of "Cc1cc(C(=O)Nc2cc(Oc3ccc4nc(NC(=O)C5CC5)cn4n3)ccc2C)n(C)n1" , please.
11.6

Tell me the measured growth of "CC(C)[C@@H](C)/C=C/[C@@H](C)[C@H]1CCC2=C3C=CC4=CC(=O)CC[C@]4(C)[C@H]3CC[C@@]21C" , please.
105
